- Test name: Inhibition of human GST-tagged androgen receptor-ligand binding domain/cofactor interaction assessed as fluorescence polarization by competition assay
Square brackets hold non-standard residues; d marks the D form. Peptide text beside a SMILES is read from it. Phe(4-Cl) = N[C@@H](Cc1ccc(Cl)cc1)C(=O)O; 2Nal = N[C@@H](Cc1ccc2ccccc2c1)C(=O)O; Cha = N[C@@H](CC1CCCCC1)C(=O)O
Property name: Ki (µM)
Give just the numeric value; µM need not be written.

Below, each entry is followed by its recorded Ki result.
CC(C)C[C@H](NC(=O)[C@H](CCCNC(=N)N)NC(=O)[C@H](CO)NC(=O)[C@@H](N)CO)C(=O)N[C@@H](CCC(=O)O)C(=O)N[C@@H](CO)C(=O)N[C@@H](Cc1c[nH]c2ccccc12)C(=O)N[C@@H](Cc1ccc(Cl)cc1)C(=O)N[C@@H](C)C(=O)NCC(=O)N[C@@H](CCC(=O)O)C(=O)N[C@@H](CCCCN)C(=O)N[C@@H](CCC(=O)O)C(=O)N[C@@H](CO)C(=O)N[C@@H](CCCNC(=N)N)C(=O)NCC(=O)O (H-SSRLESW[Phe(4-Cl)]AGEKESRG-OH) | 166
C[C@H](NC(=O)[C@H](CC1CCCCC1)NC(=O)[C@H](Cc1ccccc1)NC(=O)[C@H](CO)NC(=O)[C@H](CCC(=O)O)NC(=O)[C@H](Cc1c[nH]c2ccccc12)NC(=O)[C@H](CCCNC(=N)N)NC(=O)[C@H](CO)NC(=O)[C@@H](N)CO)C(=O)NCC(=O)N[C@@H](CCC(=O)O)C(=O)N[C@@H](CCCCN)C(=O)N[C@@H](CCC(=O)O)C(=O)N[C@@H](CO)C(=O)N[C@@H](CCCNC(=N)N)C(=O)NCC(=O)O (H-SSRWESF[Cha]AGEKESRG-OH) | 2.44

The record that follows has no Ki shown yet.
Exercise: Output measured Ki for this item: CC(C)C[C@H](NC(=O)[C@H](CO)NC(=O)[C@H](CCC(=O)O)NC(=O)[C@H](Cc1ccc2ccccc2c1)NC(=O)[C@H](CCCNC(=N)N)NC(=O)[C@H](CO)NC(=O)[C@@H](N)CO)C(=O)N[C@@H](Cc1c[nH]c2ccccc12)C(=O)N[C@@H](C)C(=O)NCC(=O)N[C@@H](CCC(=O)O)C(=O)N[C@@H](CCCCN)C(=O)N[C@@H](CCC(=O)O)C(=O)N[C@@H](CO)C(=O)N[C@@H](CCCNC(=N)N)C(=O)NCC(=O)O (H-SSR[2Nal]ESLWAGEKESRG-OH)
Key: 3.68

----------
- Test name: Inhibition of human GST-tagged androgen receptor-ligand binding domain/cofactor interaction assessed as fluorescence polarization by competition assay
Square brackets hold non-standard residues; d marks the D form. Peptide text beside a SMILES is read from it. 2Nal = N[C@@H](Cc1ccc2ccccc2c1)C(=O)O; Cha = N[C@@H](CC1CCCCC1)C(=O)O
Property name: Ki (nM)
Give just the numeric value; nM need not be written.

Exercise: Output measured Ki for this item: C[C@H](NC(=O)[C@H](Cc1c[nH]c2ccccc12)NC(=O)[C@H](CC1CCCCC1)NC(=O)[C@H](CO)NC(=O)[C@H](CCC(=O)O)NC(=O)[C@H](Cc1ccc2ccccc2c1)NC(=O)[C@H](CCCNC(=N)N)NC(=O)[C@H](CO)NC(=O)[C@@H](N)CO)C(=O)NCC(=O)N[C@@H](CCC(=O)O)C(=O)N[C@@H](CCCCN)C(=O)N[C@@H](CCC(=O)O)C(=O)N[C@@H](CO)C(=O)N[C@@H](CCCNC(=N)N)C(=O)NCC(=O)O (H-SSR[2Nal]ES[Cha]WAGEKESRG-OH)
Key: 470
